Cited source for all entries: ChEMBL document CHEMBL5291721

Target: 5-hydroxytryptamine receptor 1A (Homo sapiens); further: assay procedure not described here
Sequence (P08908 whole entry): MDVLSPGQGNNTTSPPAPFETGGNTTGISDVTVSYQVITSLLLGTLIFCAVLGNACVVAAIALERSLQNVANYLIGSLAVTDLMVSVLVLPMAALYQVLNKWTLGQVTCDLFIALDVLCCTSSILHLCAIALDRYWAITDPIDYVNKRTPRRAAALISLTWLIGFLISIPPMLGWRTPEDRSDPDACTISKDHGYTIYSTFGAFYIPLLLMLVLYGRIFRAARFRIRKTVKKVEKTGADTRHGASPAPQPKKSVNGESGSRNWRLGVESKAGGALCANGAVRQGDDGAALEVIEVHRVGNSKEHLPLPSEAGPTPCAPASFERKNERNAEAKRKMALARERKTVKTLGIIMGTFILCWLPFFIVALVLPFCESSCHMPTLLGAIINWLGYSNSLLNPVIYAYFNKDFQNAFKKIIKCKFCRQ
Assay type: functional, cell-based
Answer each item with its documented AC50.

[[record]]
molecule = "CCC1(C)CC(=O)NC1=O (stereo not given) [ETHOSUXIMIDE]"
measuredresult = "> 10 µM"

[[record]]
molecule = "CN(C)CCOCC(=O)NC12CC3CC(CC(C3)C1)C2"
measuredresult = "> 30 µM"

[[record]]
molecule = "Cn1cnc2c(F)c(Nc3ccc(Br)cc3F)c(C(=O)NOCCO)cc21"
measuredresult = "> 30 µM"

[[record]]
molecule = "CN(C)CCC(O)(c1ccccc1)c1ccccc1Cl (stereo not given)"
measuredresult = "> 10 µM"


[Q] Name the reported AC50 value associated with the molecule COC(=O)[C@H]1[C@H]2C[C@@H]3c4[nH]c5ccccc5c4CCN3C[C@H]2C[C@@H](OC(=O)c2cc(OC)c(OC)c(OC)c2)[C@@H]1OC
[A] > 10 µM

* * *

Molecular target: Beta-1 adrenergic receptor (Homo sapiens); further: assay procedure not described here
Sequence (P08588 whole entry): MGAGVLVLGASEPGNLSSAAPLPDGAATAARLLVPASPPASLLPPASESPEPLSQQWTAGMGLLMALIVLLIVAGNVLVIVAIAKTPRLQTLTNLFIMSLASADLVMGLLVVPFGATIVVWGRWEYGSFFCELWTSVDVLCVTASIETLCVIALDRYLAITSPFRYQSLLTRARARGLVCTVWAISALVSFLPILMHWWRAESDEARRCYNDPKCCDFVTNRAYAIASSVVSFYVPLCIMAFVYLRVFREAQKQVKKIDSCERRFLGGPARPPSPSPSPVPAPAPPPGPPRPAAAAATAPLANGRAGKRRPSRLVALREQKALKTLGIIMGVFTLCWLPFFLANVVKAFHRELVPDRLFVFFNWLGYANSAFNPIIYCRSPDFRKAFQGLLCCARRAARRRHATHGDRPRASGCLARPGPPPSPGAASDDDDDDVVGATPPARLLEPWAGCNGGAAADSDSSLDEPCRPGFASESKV
Assay type: functional
measuredParameter: AC50

Reference set (5 entries):
[[record]]
compound = "O=C(O)c1ccc2nc(-c3cc(Cl)cc(Cl)c3)oc2c1"
measurementtarget = "Beta-1 adrenergic receptor (Homo sapiens)"
measuredparameter = "AC50"
measuredresult = "> 30 µM"

[[record]]
compound = "O=C(O[C@H]1C[N+]2(CCCOc3ccccc3)CCC1CC2)C(O)(c1cccs1)c1cccs1 [ACLIDINIUM BROMIDE]"
measurementtarget = "Beta-1 adrenergic receptor (Homo sapiens)"
measuredparameter = "AC50"
measuredresult = "> 10 µM"

[[record]]
compound = "c1cnc2cc3c(cc2n1)[C@@H]1CNC[C@H]3C1"
measurementtarget = "Beta-1 adrenergic receptor (Homo sapiens)"
measuredparameter = "AC50"
measuredresult = "> 30 µM"

[[record]]
compound = "C[C@]12CCC(=O)C=C1[C@@H]1C[C@@H]1[C@H]1[C@@H]3[C@@H]4C[C@@H]4[C@@]4(CCC(=O)O4)[C@@]3(C)CC[C@@H]12"
measurementtarget = "Beta-1 adrenergic receptor (Homo sapiens)"
measuredparameter = "AC50"
measuredresult = "> 30 µM"

[[record]]
compound = "CC1NCCOC1c1ccccc1 (centres undefined)"
measurementtarget = "Beta-1 adrenergic receptor (Homo sapiens)"
measuredparameter = "AC50"
measuredresult = "> 10 µM"


Report AC50 for each item below.
1. C=CC1=C(C(=O)O)N2C(=O)[C@@H](NC(=O)/C(=N\O)c3csc(N)n3)[C@H]2SC1
2. CC(=O)OCC1=C(C(=O)O)N2C(=O)[C@@H](NC(=O)Cc3cccs3)[C@H]2SC1
3. CCOCC(O)COc1ccc(NC(=O)CC[S+](C)C)cc1 (centres undefined)
4. O=c1[nH]cc(F)c(=O)[nH]1

[A]
1. > 30 µM
2. > 30 µM
3. > 30 µM
4. > 30 µM

* * *

Reported AC50 for target or system UniProt P30556, by entry.
Sequence (P30556 whole entry): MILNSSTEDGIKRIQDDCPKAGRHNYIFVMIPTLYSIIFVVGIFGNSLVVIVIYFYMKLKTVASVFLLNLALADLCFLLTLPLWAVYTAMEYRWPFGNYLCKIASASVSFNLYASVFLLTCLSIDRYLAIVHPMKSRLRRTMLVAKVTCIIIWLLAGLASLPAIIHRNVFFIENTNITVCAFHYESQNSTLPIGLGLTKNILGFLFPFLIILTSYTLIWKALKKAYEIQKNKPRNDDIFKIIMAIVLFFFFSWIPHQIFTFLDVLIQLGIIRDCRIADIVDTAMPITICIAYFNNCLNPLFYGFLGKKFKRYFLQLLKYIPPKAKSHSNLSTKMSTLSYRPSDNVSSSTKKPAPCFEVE

[[record]]
molecule = "COc1cccc2c1C(=O)c1c(O)c3c(c(O)c1C2=O)C[C@@](O)(C(=O)CO)C[C@@H]3O[C@H]1C[C@H](N)[C@H](O)[C@H](C)O1"
measuredparameter = "AC50"
measuredresult = "> 30 µM"

[[record]]
molecule = "CN1C2CCCC1CC(NC(=O)c1nn(C)c3ccccc13)C2 (centres undefined)"
measuredparameter = "AC50"
measuredresult = "> 30 µM"


Report AC50 for each item below.
1. CN1C(=O)CN=C(c2ccccc2F)c2cc([N+](=O)[O-])ccc21
2. CN(C)CCOC(c1ccc(Cl)cc1)c1ccccn1 (centres undefined)
3. O=C(O)COC(=O)Cc1ccccc1Nc1c(Cl)cccc1Cl

[A]
["> 30 µM", "> 30 µM", "> 30 µM"]

Report AC50 for each item below.
1. CCC1(CC)C(=O)NC(=O)N(C)C1=O
2. CN1CC2c3ccccc3Oc3ccc(Cl)cc3C2C1 (centres undefined)

[A]
1. > 10 µM
2. > 30 µM

Report AC50 for each item below.
1. CN(C)CCc1c[nH]c2ccc(CS(=O)(=O)N3CCCC3)cc12
2. Nc1nc(Cl)nc2c1ncn2[C@@H]1O[C@H](CO)[C@@H](O)[C@@H]1F

[A]
1. > 30 µM
2. > 30 µM
